Task for the reader: assign each of the following compounds its reported z-score.
- Assay system: Luciferin 4-monooxygenase (Photinus pyralis) (UniProt P08659)
- Sequence (P08659 whole entry, looked up): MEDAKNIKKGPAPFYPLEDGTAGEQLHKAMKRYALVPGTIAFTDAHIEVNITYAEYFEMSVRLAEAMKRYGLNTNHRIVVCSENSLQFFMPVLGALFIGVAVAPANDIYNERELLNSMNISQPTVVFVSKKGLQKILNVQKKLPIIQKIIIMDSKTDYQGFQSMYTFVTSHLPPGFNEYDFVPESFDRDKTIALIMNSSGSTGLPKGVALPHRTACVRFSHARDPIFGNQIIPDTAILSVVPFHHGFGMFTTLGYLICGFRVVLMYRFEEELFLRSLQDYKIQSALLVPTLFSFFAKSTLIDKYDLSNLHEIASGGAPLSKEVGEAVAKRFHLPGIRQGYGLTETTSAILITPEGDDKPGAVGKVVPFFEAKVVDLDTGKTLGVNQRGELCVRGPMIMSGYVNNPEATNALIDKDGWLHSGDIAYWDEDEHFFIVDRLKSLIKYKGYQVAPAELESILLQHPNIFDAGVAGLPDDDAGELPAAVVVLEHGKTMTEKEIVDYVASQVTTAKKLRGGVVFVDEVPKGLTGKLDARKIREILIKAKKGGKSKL
- Assay explanation: inhibition of purified Photinus pyralis luciferase – biochemical, luminescence, purified enzyme, 2006 set, primary screen (AID 1141);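 further: cell-free assay with purified firefly luciferase at 100 ng per well in PBS; test concentration not given here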
- Run conditions: purified firefly luciferase, SteadyGlo luminescence, 30 min; higher = more signal, called active from +8 up or from −8 down unless noted
Reply briefly: the number, and no unit.

Reported z-score, compound COc1cc2c(cc1O)C=[N+](C)CC2 : ____ -0.556

Query (compound): COC(=O)[C@H]1[C@@H](O)[C@@]2(O)c3c(OC)cc(OC)cc3O[C@@]2(c2ccc(OC)cc2)[C@@H]1c1ccccc1 ; field requested: z-score -1.13

// z-score lookup, key: CN1CCc2nc(CO)c(CO)cc2C1 -0.529

Entry c1ccc(-c2cc3c(nc2-c2ccccc2)CCNC3)cc1 has what z-score? -0.13

Form field: reported z-score of COC(=O)[C@@]1(Cc2ccccc2)[C@H]2c3cc(C(=O)N(C)C)n(C)c3C[C@H]2CN1C(=O)c1ccccc1 1.59

Which measured z-score value corresponds to CN1CCC(c2ccc(CO)cc2)=CC1c1cccs1 (stereo not drawn) ? -1.16

Reported z-score, compound C[C@@H]1Cc2c(cnc3c2CN(C)CC3)CO1 : ____ -0.345

Which z-score is listed for COc1cc2c(cc1O)C(C)N(C)CC2 (stereo not drawn) ? -1.06

* * *

- System: Plasmodium falciparum Sir2 (PF13_0152, Sir2A)
- Assay explanation: Plasmodium falciparum Sir2A binding compounds – biochemical, small-molecule microarray, 635 nm fluorescence, primary screen (AID 1098);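 further: score merges spot fluorescence intensity with its signal-to-noise ratio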
- Run conditions: fluorescence 635 nm, higher = more signal
Task for the reader: assign each of the following compounds its reported composite z-score.
In your answer, state the number alone without any accompanying words.

Item CCOC(=O)[C@H]1CC=C2C(=O)Oc3ccccc3[C@@H]21 has what recorded composite z-score? -0.283

What composite z-score value was documented for this compound, COC(=O)[C@H]1C(=O)c2ccccc2O[C@@](C(=O)OC)(c2ccccc2)[C@@H]1c1ccccc1 ? 0.118

Looking for the measured composite z-score of CCCC=C(CCC)[C@@H](NP(=O)(c1ccccc1)c1ccccc1)c1ccccc1 , can you help? 0.381

composite z-score for CCCc1cc2c(n1Cc1ccco1)C(C)C1CN(C(=O)c3ccccc3)C(C)(C(=O)OC)C21 (stereo not given) ? 1.16

composite z-score for CCCc1cc2c(n1CCO)C(C)C1CN(C(=O)c3ccccc3)C(C)(C(=O)OC)C21 (stereo not given) ? 0.677

* * *

- Assay system: Follistatin (Homo sapiens)
- Assay explanation: FST protein binding to printed compounds – biochemical, small-molecule microarray, 635/667 nm fluorescence, primary screen (AID 1132)
- Run conditions: 635 nm fluorescence, higher = more signal
Please provide measured composite z-score for the entries that follow.
Enter the number alone.

Give the measured composite z-score of COC(=O)NCC=Cc1nc(CCC=CC(=O)O[C@H]2CC3CC(=O)O[C@@H](C=CCC(C)C)C[C@@H]4CC[C@H](C)[C@@H](C[C@@H](OC)C[C@H](C2)O3)O4)co1 . -0.822

Which composite z-score value belongs to O=P(c1ccccc1)(c1ccccc1)N1CC2(CC2)CC(O)(c2ccccc2)C1 (centres undefined) ? -0.541

For COC(=O)[C@@]1(Cc2ccc(F)cc2)[C@H]2c3cc(C(=O)N(C)C)[nH]c3C[C@H]2CN1C(=O)c1ccccc1 , what is its reported composite z-score? -0.252

Record request: composite z-score value, item CN1CCC(c2ccc(CO)cc2)=CC1c1cccs1 (centres undefined) 0.699

Looking for the measured composite z-score of COC(=O)[C@H]1[C@H](c2ccccc2)C(=O)[C@]2(O)c3ccccc3O[C@@]12c1ccccc1 , can you help? 0.402

# composite z-score lookup, item c1ccc(-c2cc3c(nc2-c2ccccc2)CCNC3)cc1 -0.444

Which measured composite z-score value corresponds to COC(=O)[C@H]1C(=O)c2ccccc2O[C@@](C(=O)OC)(c2ccccc2)[C@@H]1c1ccccc1 ? -0.245

Looking for the measured composite z-score of CCCC[C@@H]1C[C@H]1[C@@H](NP(=O)(c1ccccc1)c1ccccc1)c1ccc(Cl)cc1 , can you help? -1.38

I have this molecule here, COc1cc2c(cc1O)C=[N+](C)CC2 , and I need its recorded composite z-score. 0.469

Any idea what its composite z-score is? The molecule is CCCc1cc2c(n1Cc1ccc(C)cc1)C(C)C1CN(C(=O)c3ccccc3)C(C)(C(=O)OC)C21 (centres undefined) 0.66

Sample C=C(CC1(CNP(=O)(c2ccccc2)c2ccccc2)CC1)c1ccccc1 — what was its composite z-score? -0.274

Recorded composite z-score of CCCC=C(CCC)[C@@H](NP(=O)(c1ccccc1)c1ccccc1)c1ccccc1 , please. 0.139

Please look up its composite z-score: CN1CCc2nc(CO)c(CO)cc2C1 0.398

Sample CCCc1cc2c(n1CCO)C(C)C1CN(C(=O)c3ccccc3)C(C)(C(=O)OC)C21 (centres undefined) — what was its composite z-score? -0.315

The reported numbers originate from PubChem BioAssay.
